Listed below: IC50 values for each entry.
Biological target: T1, hPDL1(19-239)-TVMV-His (human, UniProt Q9NZQ7 19-239)
T1 construct: The text says amino acids 18-239, the construct name says 19-239; Expressed in HEK293T cells; Used at 10 nM final in the HTRF assay; also called PD-L1-His; PD-L1-TVMV-His
T1 sequence (Q9NZQ7 other isoform, or with tags, fused parts or gaps limits assumed): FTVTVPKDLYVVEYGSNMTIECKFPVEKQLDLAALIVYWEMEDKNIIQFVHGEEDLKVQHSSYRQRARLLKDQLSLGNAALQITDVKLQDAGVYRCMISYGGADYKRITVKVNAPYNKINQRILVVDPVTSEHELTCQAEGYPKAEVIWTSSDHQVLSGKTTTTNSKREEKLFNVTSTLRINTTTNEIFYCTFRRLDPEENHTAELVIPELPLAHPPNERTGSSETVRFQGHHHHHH
Experiment: HTRF competition, PD-1-Ig binding to PD-L1-His
Protocol: All binding studies were performed in an HTRF assay buffer consisting of dPBS supplemented with 0.1% (w/v) bovine serum albumin and 0.05% (v/v) Tween-20. […] PD-L1 fusion proteins from either human, cynomologous macaques, or mouse were used. HTRF detection was achieved using europium crypate-labeled anti-Ig monoclonal antibody (1 nM final) and allophycocyanin (APC) labeled anti-His monoclonal antibody (20 nM final). […]
Positions of bridges follow the written chain, without caps; N, C: chain ends. Non-standard residues stand in square brackets, D forms with d. Hyp = O=C(O)[C@@H]1C[C@@H](O)CN1; NMeNle = CCCC[C@H](NC)C(=O)O; NMeA = CN[C@@H](C)C(=O)O; Sar = CNCC(=O)O
Form entry: value (nM) — number only.

Lab book: IC50 of {CH2CO}-F[NMeA]NPHL[Sar]WAW[NMeNle][NMeNle]RCG-NH2 (thioether N-14; SMILES CCCC[C@H]1C(=O)N(C)[C@@H](CCCC)C(=O)N[C@@H](CCCNC(=N)N)C(=O)N[C@H](C(=O)NCC(N)=O)CSCC(=O)N[C@@H](Cc2ccccc2)C(=O)N(C)[C@@H](C)C(=O)N[C@@H](CC(N)=O)C(=O)N2CCC[C@H]2C(=O)N[C@@H](Cc2c[nH]cn2)C(=O)N[C@@H](CC(C)C)C(=O)N(C)CC(=O)N[C@@H](Cc2c[nH]c3ccccc23)C(=O)N[C@@H](C)C(=O)N[C@@H](Cc2c[nH]c3ccccc23)C(=O)N1C) [Compound No. 16] noted as 5

Lab book: IC50 of {CH2CO}-F[NMeA]N[Hyp]HL[Sar]WSW[NMeNle][NMeNle]RCG-NH2 (thioether N-14; SMILES CCCC[C@H]1C(=O)N(C)[C@@H](CCCC)C(=O)N[C@@H](CCCNC(=N)N)C(=O)N[C@H](C(=O)NCC(N)=O)CSCC(=O)N[C@@H](Cc2ccccc2)C(=O)N(C)[C@@H](C)C(=O)N[C@@H](CC(N)=O)C(=O)N2C[C@H](O)C[C@H]2C(=O)N[C@@H](Cc2c[nH]cn2)C(=O)N[C@@H](CC(C)C)C(=O)N(C)CC(=O)N[C@@H](Cc2c[nH]c3ccccc23)C(=O)N[C@@H](CO)C(=O)N[C@@H](Cc2c[nH]c3ccccc23)C(=O)N1C) [Compound No. 47] noted as 27

Recorded values, source patent US20140294898A1.
